- target system: cyclophilin A (CypA) (Homo sapiens (Human), UniProt P62937)
- Sequence (P62937 whole entry): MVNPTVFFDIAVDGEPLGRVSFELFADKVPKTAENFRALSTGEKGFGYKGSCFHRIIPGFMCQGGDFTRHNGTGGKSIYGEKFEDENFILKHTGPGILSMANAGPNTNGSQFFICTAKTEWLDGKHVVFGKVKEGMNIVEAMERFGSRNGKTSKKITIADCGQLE
- protocol summary: Inhibitor binding to cyclophilin proteins by SPR, CypA;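 note: Single-cycle kinetics on a Biacore T200, compound injected at several concentrations for 1 min each at 50 µL/min, then 10 min dissociation, in HEPES pH 7.4 buffer with 3% DMSO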
- Set-up: unit not given here
- test settings: 1:1 binding model
Starred links: 1 amine or outer side, 2 acyl side, 3 side chain; linkers in the order of their positions; H or OH if unused. Non-standard residues stand in square brackets, D forms with d. Residues, ends and D or L forms follow the SMILES beside them. X74 = C[C@H](CCN1CCN2C(=O)OC[C@@H]2C1)[C@@H](C(=O)[*:2])N(C)[*:1]; X78 = CC(C)N1CCN(CCOC[C@@H](C)[C@@H](C(=O)[*:2])N(C)[*:1])CC1; X40 = C[C@H](COCC(=O)N1CCNCC1)[C@@H](C(=O)[*:2])N(C)[*:1]; X55 = C[C@H](CN(C)CC(=O)N(C)C)[C@@H](C(=O)[*:2])N(C)[*:1]; X68 = C[C@H](CCN1CCC(C#N)CC1)[C@@H](C(=O)[*:2])N(C)[*:1]; NMe(dihydroBmt) = CCCC[C@@H](C)[C@@H](O)[C@H](NC)C(=O)O; X23 = COC1CN(C[C@@H](C)[C@@H](C(=O)[*:2])N(C)[*:1])C1; X20 = C[C@H](CCCN1CCOCC1)[C@@H](C(=O)[*:2])N(C)[*:1]; X9 = C[C@@H](CN1CCOCC1)[C@@H](C(=O)[*:2])N(C)[*:1]; X3 = C[C@H](CN1CCOCC1)[C@@H](C(=O)[*:2])N(C)[*:1]; MeBmt = C/C=C/C[C@@H](C)[C@@H](O)[C@H](NC)C(=O)O; NMeL = CN[C@@H](CC(C)C)C(=O)O; NMeV = CN[C@H](C(=O)O)C(C)C; dNMeA = CN[C@H](C)C(=O)O; Abu = CC[C@H](N)C(=O)O
readout name: CypA Kd
Numbers only.

Go through the items and report each one's CypA Kd.
1. C/C=C/C[C@@H](C)[C@@H](O)[C@H]1C(=O)N[C@@H](CC)C(=O)N(C)[C@H](C)C(=O)N(C)[C@@H]([C@H](C)CCCN2CCOCC2)C(=O)N[C@@H](C(C)C)C(=O)N(C)[C@@H](CC(C)C)C(=O)N[C@@H](C)C(=O)N[C@H](C)C(=O)N(C)[C@@H](CC(C)C)C(=O)N(C)[C@@H](CC(C)C)C(=O)N(C)[C@@H](C(C)C)C(=O)N1C [Compound 2.19.1] (cyclo([MeBmt][Abu][dNMeA][X20]V[NMeL]A[dA][NMeL][NMeL][NMeV]))
2. C/C=C/C[C@@H](C)[C@@H](O)[C@H]1C(=O)N[C@@H](CC)C(=O)N(C)[C@H](C)C(=O)N(C)[C@@H]([C@H](C)COCCN2CCN(C(C)C)CC2)C(=O)N[C@@H](C(C)C)C(=O)N(C)[C@@H](CC(C)C)C(=O)N[C@@H](C)C(=O)N[C@H](C)C(=O)N(C)[C@@H](CC(C)C)C(=O)N(C)[C@@H](CC(C)C)C(=O)N(C)[C@@H](C(C)C)C(=O)N1C [Compound 2.8.5] (cyclo(A[dA][NMeL][NMeL][NMeV][MeBmt][Abu][dNMeA][X78]V[NMeL]))
3. C/C=C/C[C@@H](C)[C@@H](O)[C@H]1C(=O)N[C@@H](CC)C(=O)N(C)[C@H](C)C(=O)N(C)[C@@H]([C@H](C)CN(C)CC(=O)N(C)C)C(=O)N[C@@H](C(C)C)C(=O)N(C)[C@@H](CC(C)C)C(=O)N[C@@H](C)C(=O)N[C@H](C)C(=O)N(C)[C@@H](CC(C)C)C(=O)N(C)[C@@H](CC(C)C)C(=O)N(C)[C@@H](C(C)C)C(=O)N1C [Compound 2.5.27] (cyclo(A[dA][NMeL][NMeL][NMeV][MeBmt][Abu][dNMeA][X55]V[NMeL]))
4. C/C=C/C[C@@H](C)[C@@H](O)[C@H]1C(=O)N[C@@H](CC)C(=O)N(C)[C@H](C)C(=O)N(C)[C@@H]([C@H](C)CN2CCOCC2)C(=O)N[C@@H](C(C)C)C(=O)N(C)[C@@H](CC(C)C)C(=O)N[C@@H](C)C(=O)N[C@H](C)C(=O)N(C)[C@@H](CC(C)C)C(=O)N(C)[C@@H](CC(C)C)C(=O)N(C)[C@@H](C(C)C)C(=O)N1C [Compound 2.5.2] (cyclo(A[dA][NMeL][NMeL][NMeV][MeBmt][Abu][dNMeA][X3]V[NMeL]))

result:
1. 0.9
2. 0.6
3. 1.4
4. 4.3

Go through the items and report each one's CypA Kd.
1. C/C=C/C[C@@H](C)[C@@H](O)[C@H]1C(=O)N[C@@H](CC)C(=O)N(C)[C@H](C)C(=O)N(C)[C@@H]([C@H](C)CCN2CCN3C(=O)OC[C@@H]3C2)C(=O)N[C@@H](C(C)C)C(=O)N(C)[C@@H](CC(C)C)C(=O)N[C@@H](C)C(=O)N[C@H](C)C(=O)N(C)[C@@H](CC(C)C)C(=O)N(C)[C@@H](CC(C)C)C(=O)N(C)[C@@H](C(C)C)C(=O)N1C [Compound 2.18.9] (cyclo(A[dA][NMeL][NMeL][NMeV][MeBmt][Abu][dNMeA][X74]V[NMeL]))
2. C/C=C/C[C@@H](C)[C@@H](O)[C@H]1C(=O)N[C@@H](CC)C(=O)N(C)[C@H](C)C(=O)N(C)[C@@H]([C@H](C)CCN2CCC(C#N)CC2)C(=O)N[C@@H](C(C)C)C(=O)N(C)[C@@H](CC(C)C)C(=O)N[C@@H](C)C(=O)N[C@H](C)C(=O)N(C)[C@@H](CC(C)C)C(=O)N(C)[C@@H](CC(C)C)C(=O)N(C)[C@@H](C(C)C)C(=O)N1C [Compound 2.18.2] (cyclo(A[dA][NMeL][NMeL][NMeV][MeBmt][Abu][dNMeA][X68]V[NMeL]))
3. C/C=C/C[C@@H](C)[C@@H](O)[C@H]1C(=O)N[C@@H](CC)C(=O)N(C)[C@H](C)C(=O)N(C)[C@@H]([C@H](C)CN2CC(OC)C2)C(=O)N[C@@H](C(C)C)C(=O)N(C)[C@@H](CC(C)C)C(=O)N[C@@H](C)C(=O)N[C@H](C)C(=O)N(C)[C@@H](CC(C)C)C(=O)N(C)[C@@H](CC(C)C)C(=O)N(C)[C@@H](C(C)C)C(=O)N1C [Compound 2.5.17] (cyclo(A[dA][NMeL][NMeL][NMeV][MeBmt][Abu][dNMeA][X23]V[NMeL]))
4. C/C=C/C[C@@H](C)[C@@H](O)[C@H]1C(=O)N[C@@H](CC)C(=O)N(C)[C@H](C)C(=O)N(C)[C@@H]([C@H](C)COCC(=O)N2CCNCC2)C(=O)N[C@@H](C(C)C)C(=O)N(C)[C@@H](CC(C)C)C(=O)N[C@@H](C)C(=O)N[C@H](C)C(=O)N(C)[C@@H](CC(C)C)C(=O)N(C)[C@@H](CC(C)C)C(=O)N(C)[C@@H](C(C)C)C(=O)N1C [Compound 2.6.1] (cyclo(A[dA][NMeL][NMeL][NMeV][MeBmt][Abu][dNMeA][X40]V[NMeL]))
5. CCCC[C@@H](C)[C@@H](O)[C@H]1C(=O)N[C@@H](CC)C(=O)N(C)[C@H](C)C(=O)N(C)[C@@H]([C@@H](C)CN2CCOCC2)C(=O)N[C@@H](C(C)C)C(=O)N(C)[C@@H](CC(C)C)C(=O)N[C@@H](C)C(=O)N[C@H](C)C(=O)N(C)[C@@H](CC(C)C)C(=O)N(C)[C@@H](CC(C)C)C(=O)N(C)[C@@H](C(C)C)C(=O)N1C [Compound 2.17.7] (cyclo(A[dA][NMeL][NMeL][NMeV][NMe(dihydroBmt)][Abu][dNMeA][X9]V[NMeL]))

result:
1. 1.8
2. 1.1
3. 1.9
4. 1.0
5. 1.5
